method description: Docetaxel plasma pharmacokinetics (LC-MS/MS, non-compartmental) alone and with pertuzumab in phase Ib patients
Type: in vivo, human
measurement setup: human, plasma, intravenous, Cohort 2A, docetaxel 75 mg m^−2 + pertuzumab 420 mg, cycle 2, n=6, plasma; read-out: Cmax mean (range)
parameter: Cmax (ng/mL)
Field: numeric (ng/mL). Do not append units.

Asked: Supply Cmax value. Item: `CC(=O)O[C@@]12CO[C@@H]1C[C@H](O)[C@@]1(C)C(=O)[C@H](O)C3=C(C)[C@@H](OC(=O)[C@H](O)[C@@H](NC(=O)OC(C)(C)C)c4ccccc4)C[C@@](O)([C@@H](OC(=O)c4ccccc4)[C@H]21)C3(C)C`
Given back: 2720

---

method description: Docetaxel plasma pharmacokinetics (LC-MS/MS, non-compartmental) alone and with pertuzumab in phase Ib patients
Type: in vivo, human
measurement setup: human, plasma, intravenous, Cohort 2A, docetaxel 75 mg m^−2 + pertuzumab 420 mg, cycle 2, n=6, plasma; read-out: t1/2 mean (range) (converted)
parameter: half-life
Could you write the number and then its unit?

Asked: Answer with the recorded half-life for the compound listed here: `CC(=O)O[C@@]12CO[C@@H]1C[C@H](O)[C@@]1(C)C(=O)[C@H](O)C3=C(C)[C@@H](OC(=O)[C@H](O)[C@@H](NC(=O)OC(C)(C)C)c4ccccc4)C[C@@](O)([C@@H](OC(=O)c4ccccc4)[C@H]21)C3(C)C`
Given back: 912 min
